Experiment: Apparent permeability from apical to basolateral side of human Caco-2 cells in presence of 5 mM GlySar
Assay type: ADME, cell-based
Details: Caco-2, with GlySar 5 mM
measured metric: Papp A→B (×10⁻⁶ cm/s)

structure_notation=C[C@@H](CC(=O)O)NC(=O)C[C@H](C)NC(=O)C[C@@H](N)CO observed_measurement=0.043

[1] CCC[C@@H](C[C@H](C)NC(=O)[C@H](C)C[C@@H](NC(=O)[C@@H](Cc1ccccc1)C[C@@H](C)N)C(C)C)C(=O)O
[2] CC(C)C[C@@H](CC(=O)O)NC(=O)C[C@H](C)N
Query: Of 1 and 2 , which one carries the higher reported Papp A→B? Answer = label.
Reply: 2

[P] CC(C)C[C@H](CCNC(=O)[C@H](C)CCNC(=O)[C@@H](CCN)C(C)C)C(=O)O
[Q] CC(C)C[C@@H](CC(=O)O)NC(=O)[C@@H](C)CN
Query: // compare measured Papp A→B between P and Q ; output the lower one Please respond with the label that marks your chosen entry.
Reply: P

* * *

Assay: Apparent permeability from apical to basolateral side of human Caco-2 cells in presence of 5 mM GlySar
Type: ADME, cell-based
Conditions: Caco-2, with GlySar 5 mM
measured metric: Papp A→B (×10⁻⁶ cm/s)

structure_notation=NCCCC[C@@H](CC(=O)N[C@H](CC(=O)O)Cc1ccccc1)NC(=O)C[C@@H](N)CO quantity_unit="×10⁻⁶ cm/s" observed_measurement=0.031

[a] CC(C)[C@H](N)CC(=S)N[C@@H](C)CC(=O)O
[b] NCCCC[C@H](N)CC(=O)N[C@H](CC(=O)O)Cc1ccccc1
[c] CC(C)C[C@@H](CNC(=O)[C@@H](C)CNC(=O)[C@H](CN)C(C)C)C(=O)O
Query: Rank by Papp A→B (largest to smallest). Output spec: a listing of the labels in the requested order.
Reply: a, b, c
(a: 0.393 ×10⁻⁶ cm/s, b: 0.045 ×10⁻⁶ cm/s, c: 0.023 ×10⁻⁶ cm/s)

* * *

Test: Apparent permeability from basolateral to apical side of human Caco-2 cells
Assay type: ADME, cell-based
measured metric: Papp B→A (×10⁻⁶ cm/s)

Known Papp B→A results, listed for orientation:
structure_notation=CC(C)C[C@@H](CNC(=O)[C@@H](C)CNC(=O)[C@H](CN)C(C)C)C(=O)O observed_measurement=0.071
structure_notation=NCCCC[C@@H](CC(=O)N[C@H](CC(=O)O)Cc1ccccc1)NC(=O)C[C@@H](N)CO observed_measurement=0.071

[P] NCCCC[C@H](N)CC(=O)N[C@H](CC(=O)O)Cc1ccccc1
[Q] CC(C)C[C@@H](CC(=O)O)NC(=O)C[C@H](C)N
Query: Please indicate which entry, P or Q , has the lower recorded Papp B→A value. State your choice using its label.
Reply: P
(P: 0.075 ×10⁻⁶ cm/s, Q: 0.129 ×10⁻⁶ cm/s)

* * *

Assay: Apparent permeability across human Caco-2 cells
Type: ADME, cell-based
Square brackets hold non-standard residues; d marks the D form. Peptide text beside a SMILES is read from it. Sar = CNCC(=O)O
measured metric: Papp (×10⁻⁶ cm/s)
Number only, in ×10⁻⁶ cm/s; omit the unit.

Query: Recorded Papp of CN(CC(=O)O)C(=O)CN [GLYCYLSARCOSINE] (H-Gly-[Sar]-OH) , please.
Reply: 11

* * *

Target: Solute carrier family 15 member 1 (Homo sapiens)
Test: Inhibition of [3H]GlySar uptake at human PepT1 in Caco-2 cells
Format: cell-based
The source made the active and inactive calls. The calls are words filed in the database; no cut-off is given here.
measured metric: Activity

Before answering, review these 5 worked examples.
structure_notation=C[C@H](N)CC(=O)N[C@@H](CCCCN)CC(=O)O measured_metric=Activity observed_measurement=Active
structure_notation=CC(C)C[C@H](CCNC(=O)[C@H](C)CCNC(=O)[C@@H](CCN)C(C)C)C(=O)O measured_metric=Activity observed_measurement=inactive
structure_notation=C[C@@H](CC(=O)O)NC(=O)C[C@H](C)NC(=O)C[C@@H](N)CO measured_metric=Activity observed_measurement=inactive
structure_notation=NCCCC[C@@H](CC(=O)N[C@H](CC(=O)O)Cc1ccccc1)NC(=O)C[C@@H](N)CO measured_metric=Activity observed_measurement=Active
structure_notation=C[C@H](N)CC(=O)N[C@@H](CCCCN)CC(=O)N[C@H](CC(=O)O)Cc1ccccc1 measured_metric=Activity observed_measurement=Active

Query: What Activity value was documented for this compound, CC(C)C[C@@H](CC(=O)O)NC(=O)C[C@H](C)N ?
Reply: Active

Query: Also need CC(C)[C@H](N)CC(=S)N[C@@H](C)CC(=O)O , thanks.
Reply: Active

Query: Let us now turn to CC(C)C[C@@H](CNC(=O)[C@@H](C)CNC(=O)[C@H](CN)C(C)C)C(=O)O
Reply: Active

Query: CCC[C@@H](C[C@H](C)NC(=O)[C@H](C)C[C@@H](NC(=O)[C@@H](Cc1ccccc1)C[C@@H](C)N)C(C)C)C(=O)O ?
Reply: Active

Query: Try this compound too: CC(C)C[C@@H](CC(=O)O)NC(=O)[C@@H](C)CN
Reply: Active

Query: Another compound: NCCCC[C@H](N)CC(=O)N[C@H](CC(=O)O)Cc1ccccc1
Reply: Active

* * *

Assay: Apparent permeability from basolateral to apical side of human Caco-2 cells at pH 7.4 after 180 mins
Assay type: ADME, cell-based
Conditions: Caco-2, pH 7.4
measured metric: Papp B→A at 3 h (×10⁻⁶ cm/s)

[A] C[C@H](N)CC(=O)N[C@@H](CCCCN)CC(=O)O
[B] CCC[C@@H](C[C@H](C)NC(=O)[C@H](C)C[C@@H](NC(=O)[C@@H](Cc1ccccc1)C[C@@H](C)N)C(C)C)C(=O)O
Query: Of A and B , which shows the smaller Papp B→A at 3 h value? Returns: label corresponding to the selected item.
Reply: A

* * *

Test: Apparent permeability from apical to basolateral side of human Caco-2 cells
Format: ADME, cell-based
measured metric: Papp A→B (×10⁻⁶ cm/s)

structure_notation=C[C@@H](CC(=O)O)NC(=O)C[C@H](C)NC(=O)C[C@@H](N)CO quantity_unit="×10⁻⁶ cm/s" observed_measurement=0.044
structure_notation=CC(C)C[C@H](CCNC(=O)[C@H](C)CCNC(=O)[C@@H](CCN)C(C)C)C(=O)O quantity_unit="×10⁻⁶ cm/s" observed_measurement=0.034
structure_notation=CC(C)C[C@@H](CC(=O)O)NC(=O)C[C@H](C)N quantity_unit="×10⁻⁶ cm/s" observed_measurement=0.613

[1] CCC[C@@H](C[C@H](C)NC(=O)[C@H](C)C[C@@H](NC(=O)[C@@H](Cc1ccccc1)C[C@@H](C)N)C(C)C)C(=O)O
[2] CC(C)[C@H](N)CC(=S)N[C@@H](C)CC(=O)O
Query: Please indicate which has the smaller reported Papp A→B: 1 , or 2 . Please indicate the selected item by its label.
Reply: 1

[A] C[C@H](N)CC(=O)N[C@@H](CCCCN)CC(=O)O
[B] CC(C)C[C@@H](CNC(=O)[C@@H](C)CNC(=O)[C@H](CN)C(C)C)C(=O)O
Query: Choose between A and B : whose measured Papp A→B value is numerically larger? Lab note: record the label of whichever item you select.
Reply: A

[I] NCCCC[C@@H](CC(=O)N[C@H](CC(=O)O)Cc1ccccc1)NC(=O)C[C@@H](N)CO
[II] CC(C)C[C@@H](CC(=O)O)NC(=O)[C@@H](C)CN
Query: // task: argmin of Papp A→B over [ I , II ] In your reply, give the label of the chosen option.
Reply: I
(I: 0.037 ×10⁻⁶ cm/s, II: 0.095 ×10⁻⁶ cm/s)

[P] C[C@H](N)CC(=O)N[C@@H](CCCCN)CC(=O)N[C@H](CC(=O)O)Cc1ccccc1
[Q] NCCCC[C@H](N)CC(=O)N[C@H](CC(=O)O)Cc1ccccc1
Query: Input pair: P , Q . Output: entry with lower Papp A→B. Answer format: the label of the selected item.
Reply: P
(P: 0.049 ×10⁻⁶ cm/s, Q: 0.072 ×10⁻⁶ cm/s)

* * *

Assay: Apparent permeability from apical to basolateral side of human Caco-2 cells at pH 7.4 after 180 mins
Assay type: ADME, cell-based
Conditions: Caco-2, pH 7.4
measured metric: Papp A→B at 3 h (×10⁻⁶ cm/s)

[a] CCC[C@@H](C[C@H](C)NC(=O)[C@H](C)C[C@@H](NC(=O)[C@@H](Cc1ccccc1)C[C@@H](C)N)C(C)C)C(=O)O
[b] C[C@H](N)CC(=O)N[C@@H](CCCCN)CC(=O)O
Query: Given a and b , report the one with the higher recorded Papp A→B at 3 h. The response must carry the label of the picked entry.
Reply: b
(b: 0.044 ×10⁻⁶ cm/s, a: 0.021 ×10⁻⁶ cm/s)
